System: Calf thymus DNA
measurementProtocol: Inhibitory concentration against ethidium bromide binding to DNA
Assay type: nucleic-acid assay
settings: Bos taurus
Task for the reader: assign each of the following compounds its reported rf50.
Answers are plain numbers.

Please review the following examples before continuing.
compound	result
CCN(CC)CCOc1ccc(/C(=C(\Cl)c2ccccc2)c2ccccc2)cc1	20
Cc1c2cc[n+](CC(=O)NCCCCCNCCOc3ccc(/C(=C(/Cl)c4ccccc4)c4ccccc4)cc3)cc2c(C)c2c1[nH]c1ccc(O)cc12.[Cl-]	0.32
COc1ccc2[nH]c3c(C)c4cc[n+](CC(=O)NCCCCCNCCOc5ccc(/C(=C(/Cl)c6ccccc6)c6ccccc6)cc5)cc4c(C)c3c2c1	0.86
COc1ccc2[nH]c3c(C)c4cc[n+](CC(=O)N(CCCCCN)CCOc5ccc(/C(=C(/Cl)c6ccccc6)c6ccccc6)cc5)cc4c(C)c3c2c1.[Cl-]	0.7
CCN(CC)CCOc1ccc(/C(=C(/Cl)c2ccccc2)c2ccccc2)cc1	20

For each entry beneath this line, provide reported rf50.
1. COc1ccc2[nH]c3c(C)c4cc[n+](CC(=O)NCCCCCN(CCOc5ccc(/C(=C(/Cl)c6ccccc6)c6ccccc6)cc5)C(=O)C[n+]5ccc6c(C)c7[nH]c8ccc(OC)cc8c7c(C)c6c5)cc4c(C)c3c2c1
2. Cc1c2cc[n+](CC(=O)NCCCCCN(CCOc3ccc(/C(=C(/Cl)c4ccccc4)c4ccccc4)cc3)C(=O)C[n+]3ccc4c(C)c5[nH]c6ccc(O)cc6c5c(C)c4c3)cc2c(C)c2c1[nH]c1ccc(O)cc12.[Cl-].[Cl-]
3. Cc1c2cc[n+](CCNC(=O)CC3(C)CC[C@H]4[C@@H]5CCc6cc(O)ccc6[C@H]5CC[C@@]43C)cc2c(C)c2c1[nH]c1ccccc12.[Br-] (stereo partly drawn)

OUTPUT:
[10, 4.8, 1.5]
